biological target: PIM2 (Homo sapiens)
Sequence (Q9P1W9 whole entry): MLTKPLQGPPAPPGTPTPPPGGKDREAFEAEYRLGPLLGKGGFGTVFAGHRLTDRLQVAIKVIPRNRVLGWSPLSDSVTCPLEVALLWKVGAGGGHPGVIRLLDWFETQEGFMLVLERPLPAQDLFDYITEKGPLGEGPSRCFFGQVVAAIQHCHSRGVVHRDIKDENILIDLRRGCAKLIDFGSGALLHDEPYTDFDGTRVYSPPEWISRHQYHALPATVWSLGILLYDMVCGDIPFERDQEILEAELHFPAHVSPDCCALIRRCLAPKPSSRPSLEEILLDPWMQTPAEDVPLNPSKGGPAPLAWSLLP
pIC50: −log10 of the molar value.
Label Met when pIC50 is at or above 7; anything below gets Not met.

>>> print(df.to_string())
                                   compound  category_label
0  CS(=O)(=O)c1ccc(-c2ccc(N)c(-c3cc4c(N5CCC[C@H](N)C5)ccnc4cn3)n2)cc1 [Example 24]             Met
1  C[C@@H]1C[C@H](N)CN(c2ccnc3ccc(-c4cccc(-c5nccs5)n4)cc23)C1 [Example 31]             Met
2  Nc1cnc(-c2ccccc2F)nc1-c1cc2c(N3CCC[C@H](N)C3)ccnc2cn1 [Example 6]             Met
3  N[C@H]1CCCN(c2ccnc3ccc(-c4nccc(-c5ccccc5F)n4)cc23)C1 [Example 30]         Not met
4  Nc1ccc(-c2c(F)cccc2F)nc1-c1cc2c(N3CCC[C@H](N)C3)ccnc2cn1 [Example 9]             Met
5  C[C@@H]1C[C@H](N)CN(c2ccnc3ccc(-c4cccc(-c5c(F)cccc5F)n4)cc23)C1 [Example 34]             Met
6  Cc1cc(-c2ccnc3cnc(-c4nc(-c5c(F)cccc5F)ccc4N)cc23)cc(N)n1 [Example 3]         Not met
7  N[C@@H]1CN(c2ccnc3ccc(-c4cccc(-c5c(F)cccc5F)n4)cc23)CC[C@H]1O [Example 35]         Not met

* * *

// values below are reported pIC50
target: PIM1 (Homo sapiens, UniProt P11309); experiment: Pim1 ATP depletion assay; type: biochemical; settings: 20 μM ATP, 2.5 nM PIM1
Sequence (P11309 whole entry): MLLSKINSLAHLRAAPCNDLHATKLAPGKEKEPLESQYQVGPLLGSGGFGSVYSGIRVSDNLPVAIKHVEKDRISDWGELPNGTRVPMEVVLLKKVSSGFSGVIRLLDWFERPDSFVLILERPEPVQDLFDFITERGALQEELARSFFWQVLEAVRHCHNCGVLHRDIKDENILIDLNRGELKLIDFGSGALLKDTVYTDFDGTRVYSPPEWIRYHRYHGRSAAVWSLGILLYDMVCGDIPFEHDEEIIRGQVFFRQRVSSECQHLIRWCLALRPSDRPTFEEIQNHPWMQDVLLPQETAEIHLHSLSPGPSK
pIC50: −log10 of the molar value.
Observable: pIC50

>>> print(df.to_string())
                         chemical_structure                               target  measured_value
0  Nc1ccc(-c2cccc(F)c2F)nc1-c1cc2c(N3CCC[C@H](N)C3)ccnc2cn1  PIM1 (Homo sapiens, UniProt P11309)            8.70
1  Nc1ccc(-c2ccc(S(N)(=O)=O)cc2)nc1-c1cc2c(N3CCC[C@H](N)C3)ccnc2cn1  PIM1 (Homo sapiens, UniProt P11309)            8.70
2  COc1cccc(-c2ccc(N)c(-c3cc4c(N5CCC[C@H](N)C5)ccnc4cn3)n2)n1  PIM1 (Homo sapiens, UniProt P11309)            8.22
3  CN(C)C(=O)c1ccc(F)c(-c2ccc(N)c(-c3cc4c(N5CCC[C@H](N)C5)ccnc4cn3)n2)c1  PIM1 (Homo sapiens, UniProt P11309)            8.00

* * *

Reported IC50, PIM3 (Homo sapiens, UniProt Q86V86).
Observable: IC50 (nM)

>>> df
                                   compound  display_unit  measured_value
0  Nc1ccc(-c2cc(C(=O)Nc3ccccc3)ccc2F)nc1-c1cc2c(N3CCC[C@H](N)C3)ccnc2cn1 [Example 12]            nM              21
1  N[C@H]1CCCN(c2ccnc3ccc(-c4nccc(-c5ccccc5F)n4)cc23)C1 [Example 30]            nM              20
2  C[C@@H]1C[C@H](N)CN(c2ccnc3ccc(-c4cccc(-c5nccs5)n4)cc23)C1 [Example 31]            nM               6
3  Nc1ccc(-c2cccs2)nc1-c1cc2c(N3CCC[C@H](N)C3)ccnc2cn1 [Example 13]            nM               4
4  N[C@H]1CCCN(c2ccnc3ccc(-c4nccc(-c5c(F)cccc5F)n4)cc23)C1 [Example 29]            nM               8
5  N[C@H]1CCCN(c2ccnc3ccc(-c4nccc(-c5nccs5)n4)cc23)C1 [Example 28]            nM               7
6  N[C@@H]1CN(c2ccnc3ccc(-c4cccc(-c5c(F)cccc5F)n4)cc23)CC[C@H]1O [Example 35]            nM              21
7  N[C@H]1CCCN(c2ccnc3ccc(-c4cccc(-c5c(F)cccc5F)n4)cc23)C1 [Example 26]            nM              26
8  Nc1ccc(-c2nccs2)nc1-c1cc2c(N3CCC[C@H](N)C3)ccnc2cn1 [Example 5]            nM               4
9  Nc1ccc(-c2cccc(F)c2F)nc1-c1cc2c(N3CCC[C@H](N)C3)ccnc2cn1 [Example 18]            nM               4
